System: 565726-208-R1-J5-PDC complex spheroids, growth inhibition;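 further: spheroids exposed to compounds for seven days before readout; 100% = DMSO vehicle control viability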
test: Anticancer human tumor 565726-208-R1-J5-PDC patient-derived pancreatic adenocarcinoma cell line growth inhibition [RAS]
condition.details: second compound 0.000949 µM; first compound 10 µM; active compounds read low
Source text: RAS pathway inhibitors in Combinations in Complex Spheroids A high-throughput screen of multi-cell type tumor spheroids was designed to identify active combinations of RAS pathway inhibitors and targeted small molecules. Complex spheroids include a stromal component modeled by human endothelial cells (HUVEC) and fibroblasts modeled by human mesenchymal stem cells (MSCs). […] Compounds. […] If the clinical Cmax for an agent had not been determined, the highest concentration tested was 10 microM. […]
Provide the reported viability, T/C of each item.
# output: bare number, implied unit %

viability, T/C recorded for this compound, CC(=O)OC12COC1CC(O)C1(C)C(=O)C(O)C3=C(C)C(OC(=O)C(O)C(NC(=O)OC(C)(C)C)c4ccccc4)CC(O)(C(OC(=O)c4ccccc4)C21)C3(C)C (configuration not stated) + CCn1c(-c2cc(N3CCN(C)CC3)cnc2C(C)OC)c2c3cc(ccc31)-c1csc(n1)CC(NC(=O)C1CC1C)C(=O)N1CCCC(N1)C(=O)OCC(C)(C)C2 , is 20.8

viability, T/C recorded for this compound, Cc1nc(N2CCC3(CC2)COC(C)C3N)c(CO)nc1Sc1ccnc(N)c1Cl (configuration not stated) + CCn1c(-c2cccnc2C(C)OC)c2c3cc(ccc31)N1CCOC(CC(NC(=O)C(C(C)C)N(C)C(=O)C3(F)CCN(C(=O)C#CC(C)(C)N(C)C)CC3)C(=O)N3CCCC(N3)C(=O)OCC(C)(C)C2)C1 , is 66.5

Lab note: measured viability, T/C of NC1c2ccccc2OC12CCN(c1cnc3c(N4CCCc5ncccc54)n[nH]c3n1)CC2 (configuration not stated) + CCn1c(-c2cccnc2C(C)OC)c2c3cc(ccc31)N1CCOC(CC(NC(=O)C(C(C)C)N(C)C(=O)C3(F)CCN(C(=O)C#CC(C)(C)N(C)C)CC3)C(=O)N3CCCC(N3)C(=O)OCC(C)(C)C2)C1 was 56.9

The compound identified as CC(C)NCC(C(=O)N1CCN(c2ncnc3c2C(C)CC3O)CC1)c1ccc(Cl)cc1 (configuration not stated) + CCn1c(-c2cccnc2C(C)OC)c2c3cc(ccc31)N1CCOC(CC(NC(=O)C(C(C)C)N(C)C(=O)C3(F)CCN(C(=O)C#CC(C)(C)N(C)C)CC3)C(=O)N3CCCC(N3)C(=O)OCC(C)(C)C2)C1 registered its viability, T/C at 56.6

# viability, T/C (compound: Cc1nc(N2CCC3(CC2)COC(C)C3N)c(CO)nc1Sc1ccnc(N)c1Cl (configuration not stated) + CCn1c(-c2cc(N3CCN(C)CC3)cnc2C(C)OC)c2c3cc(ccc31)-c1csc(n1)CC(NC(=O)C1CC1C)C(=O)N1CCCC(N1)C(=O)OCC(C)(C)C2 ) is 28

# compound C[C@@H](NC(=O)c1ncnc(N)c1Cl)c1ncc(C(=O)Nc2cc(C(F)(F)F)c(Cl)cn2)s1 + CCn1c(-c2cccnc2C(C)OC)c2c3cc(ccc31)N1CCOC(CC(NC(=O)C(C(C)C)N(C)C(=O)C3(F)CCN(C(=O)C#CC(C)(C)N(C)C)CC3)C(=O)N3CCCC(N3)C(=O)OCC(C)(C)C2)C1 ; its viability, T/C = 83.3

So for CC(C)NCC(C(=O)N1CCN(c2ncnc3c2C(C)CC3O)CC1)c1ccc(Cl)cc1 (configuration not stated) + CCn1c(-c2cc(N3CCN(C)CC3)cnc2C(C)OC)c2c3cc(ccc31)-c1csc(n1)CC(NC(=O)C1CC1C)C(=O)N1CCCC(N1)C(=O)OCC(C)(C)C2 , the logged viability, T/C turned out to be 28.7

compound NC1c2ccccc2OC12CCN(c1cnc3c(N4CCCc5ncccc54)n[nH]c3n1)CC2 (configuration not stated) + CCn1c(-c2cc(N3CCN(C)CC3)cnc2C(C)OC)c2c3cc(ccc31)-c1csc(n1)CC(NC(=O)C1CC1C)C(=O)N1CCCC(N1)C(=O)OCC(C)(C)C2 , viability, T/C observed: 21.3

viability, T/C in this record for C[C@@H](NC(=O)c1ncnc(N)c1Cl)c1ncc(C(=O)Nc2cc(C(F)(F)F)c(Cl)cn2)s1 + CCn1c(-c2cc(N3CCN(C)CC3)cnc2C(C)OC)c2c3cc(ccc31)-c1csc(n1)CC(NC(=O)C1CC1C)C(=O)N1CCCC(N1)C(=O)OCC(C)(C)C2 : 58

In plain terms, CC1(O)CCCC1n1c(=O)c(C(F)F)cc2cnc(NC3CCN(S(C)(=O)=O)CC3)nc21 (configuration not stated) + CCn1c(-c2cc(N3CCN(C)CC3)cnc2C(C)OC)c2c3cc(ccc31)-c1csc(n1)CC(NC(=O)C1CC1C)C(=O)N1CCCC(N1)C(=O)OCC(C)(C)C2 has a documented viability, T/C of 3.21

Quick note, viability, T/C for CC(Nc1ccc2c(c1)OCCn1cc(N3C(=O)OCC3C(F)F)nc1-2)C(N)=O (configuration not stated) + CCn1c(-c2cc(N3CCN(C)CC3)cnc2C(C)OC)c2c3cc(ccc31)-c1csc(n1)CC(NC(=O)C1CC1C)C(=O)N1CCCC(N1)C(=O)OCC(C)(C)C2 landed at 32.9

Item: CC1(O)CCCC1n1c(=O)c(C(F)F)cc2cnc(NC3CCN(S(C)(=O)=O)CC3)nc21 (configuration not stated) + CCn1c(-c2cccnc2C(C)OC)c2c3cc(ccc31)N1CCOC(CC(NC(=O)C(C(C)C)N(C)C(=O)C3(F)CCN(C(=O)C#CC(C)(C)N(C)C)CC3)C(=O)N3CCCC(N3)C(=O)OCC(C)(C)C2)C1 | viability, T/C: 4.71
